Reference source for all entries: the supplement of paper PMC10307832

system: COR-L23; assay: relative viability (nuclei count vs DMSO), 5 days (fraction); higher = more cells survive; details: first compound 2.53 µM
Catalogue of compounds with associated relative viability
Give your answer as a number; write no unit.

[[record]]
compound = "C=C1C(=O)O[C@@H](CCCCCCCC)[C@@H]1C(=O)O [C-75] + COc1cc2c(Oc3ccc(NC(=O)C4(C(=O)Nc5ccc(F)cc5)CC4)cc3F)ccnc2cc1OCCCN1CCOCC1 [Foretinib] (partner 0.25 µM)"
reported_endpoint = "relative viability"
recorded_number = 0.9

[[record]]
compound = "Oc1nc(-c2ccc(C(F)(F)F)cc2)nc2c1CSCC2 [XAV939] + CCNC(=O)c1noc(-c2cc(C(C)C)c(O)cc2O)c1-c1ccc(CN2CCOCC2)cc1 [Luminespib] (partner 0.01 µM)"
reported_endpoint = "relative viability"
recorded_number = 0.792


Now examine the next entry.
Task: I'd like to know its relative viability. The compound in question is Oc1nc(-c2ccc(C(F)(F)F)cc2)nc2c1CSCC2 [XAV939] + Cc1cc(Nc2cc(N3CCN(C)CC3)nc(Sc3ccc(NC(=O)C4CC4)cc3)n2)n[nH]1 [Tozasertib] (partner 0.1 µM)
Output: 0.154
